Target: IL6 (human, UniProt P05231)
Sequence (P05231 30-212): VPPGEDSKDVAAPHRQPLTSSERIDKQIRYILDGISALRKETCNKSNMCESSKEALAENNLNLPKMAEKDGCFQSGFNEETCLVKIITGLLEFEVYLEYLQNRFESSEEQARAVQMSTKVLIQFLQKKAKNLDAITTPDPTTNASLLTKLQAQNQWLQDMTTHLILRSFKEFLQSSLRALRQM
Assay: ELISA, apparent
pKd: −log10 of the molar value.
measure name: pKd

(I) SIL-2D8 (antibody, V domains shown) VH: EVQLVESGGGLVQAGGSLRLSCTASGHNADTYAMGWFRQAPGKEREFVTGISWTGVGTYIADSVKGRFTISRDNAKNTVYLQMNSLKPEDTAVYRCAAGSDYSDSHYDKSYEYDYWGQGTQVTVSS
(II) SIL-2F5 (antibody, V domains shown) VH: EVQLVESGGGLVQAGGSLRLSCAASGRAADTYAMGWFRQSPGSRREFVTGISWTGSGTYYADSVKGRFTISRDTAKNTVYLQMNSLKPEDTAVYYCAAGSDYSDSHYDKSYEYDYWGQGTQVTVSS
// which entry reports the smaller pKd, I or II ? In your reply, give the label of the chosen option. I
(I: 8.30, II: 9.00)
